Source listed as PubChem BioAssay.

ASSAY TEXT: splicing luciferase reporter signal modulators, primary screen, spliceosome inhibition project, cell-based, HEK293, splice +/- reporter (AID 1101);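 note: HEK293 cells carrying a splicing-competent luciferase reporter gene; test concentration not given here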
TEST PARAMETERS: luminescence, 24 h, higher = more signal, called active from +8 up or from −8 down
QUANTITY MEASURED: z-score

MOLECULE | QUANTITY MEASURED | NUMERIC VALUE
[N-]=[N+]=Nc1ccccc1C[C@]1(C(=O)N2CCOCC2)N=C(c2ccc(OCCCO)cc2)O[C@H]1c1ccccc1 | z-score | -0.963
COCCCNC(=O)[C@@]1(Cc2ccccc2N=[N+]=[N-])COC(c2ccc(OCCCO)cc2)=N1 | z-score | 0.989
CO[C@]12C=C(Br)[C@@H](C[C@@H]1c1cccc(C)c1)[C@@]1(CO1)C2=O | z-score | -0.258
CC(C)[Si](C#C[Si](C(C)C)(C(C)C)C(C)C)(O[C@H](C)c1cn([C@H](CO)Cc2ccccc2)nn1)C(C)C | z-score | -0.0126
C=CCNC(=O)[C@H]1[C@@H]2C(=O)O[C@@H](c3ccccc3)[C@@H](c3ccccc3)N2[C@@H](c2ccc(O)cc2)[C@]12C(=O)N(C(=O)OCCOC)c1ccccc12 | z-score | -1.59
COc1ccc(-c2nc(-c3ccccc3)c3c(c2C)CO[Si]3(C(C)C)C(C)C)cn1 | z-score | 0.0313
C=CCC(OC(C)=O)[C@@H]1[C@@H](N(Cc2cccc3ccccc23)C(=O)c2cccc3ccccc23)c2cc(OCCCO)ccc2N1C(=O)c1ccc(-c2ccccc2)cc1 (some centres not stated) | z-score | -0.566
